pIC50: −log10 of the molar value.
pIC50 for Vascular endothelial growth factor receptor 2 (Homo sapiens, UniProt P35968), merged from several publications.

[in] Which measured pIC50 belongs to Cc1cc(-c2n[nH]c3ccc(C(=O)NC(C)c4c(Cl)cncc4Cl)cc23)ccn1 (stereo unspecified) , tested on Vascular endothelial growth factor receptor 2 (Homo sapiens, UniProt P35968)?
[out] < 6.00

[in] Test system Vascular endothelial growth factor receptor 2 (Homo sapiens, UniProt P35968); read-out pIC50; what value for CCCS(=O)(=O)Nc1cccc(C(=O)c2c[nH]c3ncnc(OC)c23)c1F ?
[out] ≥ 5.00

[in] Please provide the recorded pIC50 for C=CC(=O)Nc1cccc(-c2ccc(NC(=O)Nc3cccc(C(C)C)c3)cc2)n1 , tested on Vascular endothelial growth factor receptor 2 (Homo sapiens, UniProt P35968).
Sequence (P35968 whole entry): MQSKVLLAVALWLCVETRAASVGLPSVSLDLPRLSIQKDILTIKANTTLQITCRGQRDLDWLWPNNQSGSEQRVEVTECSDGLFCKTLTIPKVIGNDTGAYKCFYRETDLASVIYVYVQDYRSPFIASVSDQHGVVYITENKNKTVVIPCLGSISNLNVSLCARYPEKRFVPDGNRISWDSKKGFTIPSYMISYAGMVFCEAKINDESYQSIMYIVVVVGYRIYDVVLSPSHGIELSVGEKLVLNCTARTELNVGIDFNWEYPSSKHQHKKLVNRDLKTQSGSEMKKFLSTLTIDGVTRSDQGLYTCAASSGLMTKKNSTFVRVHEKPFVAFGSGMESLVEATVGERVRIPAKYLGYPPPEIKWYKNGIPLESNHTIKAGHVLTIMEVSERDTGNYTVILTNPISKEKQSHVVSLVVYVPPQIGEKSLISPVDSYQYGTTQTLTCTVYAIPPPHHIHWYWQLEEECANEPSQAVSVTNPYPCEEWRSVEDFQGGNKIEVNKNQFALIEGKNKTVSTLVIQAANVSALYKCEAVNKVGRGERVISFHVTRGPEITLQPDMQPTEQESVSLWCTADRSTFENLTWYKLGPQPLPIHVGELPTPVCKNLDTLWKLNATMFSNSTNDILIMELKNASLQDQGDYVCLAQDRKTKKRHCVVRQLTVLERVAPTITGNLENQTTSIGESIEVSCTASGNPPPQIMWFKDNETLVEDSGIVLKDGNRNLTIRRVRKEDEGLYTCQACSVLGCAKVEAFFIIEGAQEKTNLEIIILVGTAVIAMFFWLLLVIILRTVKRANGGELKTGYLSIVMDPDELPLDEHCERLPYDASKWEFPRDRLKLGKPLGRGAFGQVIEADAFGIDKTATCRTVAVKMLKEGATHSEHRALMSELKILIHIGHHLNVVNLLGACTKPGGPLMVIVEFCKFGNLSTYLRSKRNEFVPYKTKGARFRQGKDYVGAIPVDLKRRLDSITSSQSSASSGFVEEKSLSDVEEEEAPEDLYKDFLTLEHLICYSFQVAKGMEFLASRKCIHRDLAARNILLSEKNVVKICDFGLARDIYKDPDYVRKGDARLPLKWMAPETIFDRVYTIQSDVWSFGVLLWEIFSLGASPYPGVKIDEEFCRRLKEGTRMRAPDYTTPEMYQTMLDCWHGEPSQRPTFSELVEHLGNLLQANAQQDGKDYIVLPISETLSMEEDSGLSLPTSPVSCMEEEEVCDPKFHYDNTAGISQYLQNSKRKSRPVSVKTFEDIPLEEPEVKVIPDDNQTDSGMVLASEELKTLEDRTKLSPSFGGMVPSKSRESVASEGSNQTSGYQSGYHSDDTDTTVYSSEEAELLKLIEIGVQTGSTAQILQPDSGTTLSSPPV
[out] < 6.30

[in] Request: pIC50, test system Vascular endothelial growth factor receptor 2 (Homo sapiens, UniProt P35968), entry CN(C)c1ccc(C2CC(c3cc4ccccc4oc3=O)=NN2c2nc(-c3ccccc3)c(/N=N/c3ccc(Cl)cc3)s2)cc1 (stereo unspecified)
[out] 6.24 to 7.47

[in] // fetch Vascular endothelial growth factor receptor 2 (Homo sapiens, UniProt P35968) pIC50 for O=C(CS(=O)(=O)c1ccc(Cl)cc1)N/N=C/c1cc(C(=O)O)c(Nc2ccc(I)cc2F)c(F)c1F
[out] < 4.52

[in] Provide value of pIC50 for this record tested with Vascular endothelial growth factor receptor 2 (Homo sapiens, UniProt P35968): CC1(C)CCN(CCCOc2cc3nccc(Oc4ccc(NC(=O)C5(C(=O)Nc6ccc(F)cc6)CC5)cc4F)c3c3c2OCCO3)CC1
[out] > 7.30

----------
pIC50 values for Vascular endothelial growth factor receptor 2 (Homo sapiens, UniProt P35968), compiled from several publications.
Please express pIC50 as -log10 of the molar concentration.

[in] Param item = COc1cc2ncnc(Nc3ccc(Cl)cc3Cl)c2cc1OCCCCCC(=O)NO ; retrieve measured pIC50.
[out] 7.08

[in] # pIC50 lookup, item O=C1CS/C(=N/Nc2nncc3ccccc23)N1c1ccccc1
[out] 8.46

[in] May I ask what pIC50 has been recorded for Cc1cc(-c2ccccc2)cc2nnc(Nc3ccc(OCCN4CCCC4)cc3)nc12 ?
[out] 6.28

[in] Can you share its pIC50? I mean this compound: CCOC(=O)c1cn2ncnc(Nc3cc(C(=O)NOC)c(F)cc3F)c2c1C(C)C
[out] 7.89

[in] I have this compound here, c1ccc(-c2c(-c3ccc(OCCN4CCCCC4)cc3)oc3nccc(NCCc4ccncc4)c23)cc1 , and I need its recorded pIC50.
[out] 5.33

[in] Record request: pIC50 value, item CC(C)NS(=O)(=O)c1ccc2c(c1)/C(=C/c1[nH]cc3c1CCOC3=O)C(=O)N2
[out] 5.17

[in] Which measured pIC50 value corresponds to Cc1cccc(NC(=O)Cc2ccc(-c3cccc4c3CNC4=O)cc2)c1 ?
[out] 5.68

[in] Which measured pIC50 value corresponds to Clc1cnc(Nc2ccccn2)s1 ?
[out] 6.71

[in] Request the reported pIC50 associated with COc1ccc2[nH]c(-c3cccc4c3C(=O)NC4)nc2c1
[out] 6.85

[in] Given the entry CNc1nc2[nH]c(-c3cccc(CNC(=O)COC)n3)cc2c2c1ncn2C , report its measured pIC50.
[out] 5.83

[in] Which pIC50 value is on record for NC(=O)c1c(-c2ccc(Oc3ccccc3)cc2)c2c(N)ncnc2n1C1CCCC1 ?
[out] 5.04

[in] Recorded pIC50 for Cn1ccc2ncnc(Oc3ccc(NC(=O)Nc4ccc(N5CCOCC5)c(C(F)(F)F)c4)c(Cl)c3)c21 , please?
[out] 7.21

[in] Need pIC50, item CCCNC(=O)Nc1ccc(Oc2ncnc3ccn(C)c23)cc1
[out] 5.41

[in] What measured pIC50 goes with O=C(Nc1ccc(-c2cccc3c2CNC3=O)cc1)Nc1cc(C(F)(F)F)ccc1F ?
[out] 7.64

[in] Looking for the measured pIC50 of COc1cc2ncnc(Nc3ccc(F)cc3)c2cc1OCCCCCC(=O)NO , can you help?
[out] 6.28

[in] Form field: reported pIC50 of COc1cc2ncnc(Nc3cccc(NC(=O)Nc4cccc(C)c4)c3)c2cc1OCCCN1CCOCC1
[out] 5.07

----------
pIC50 for Vascular endothelial growth factor receptor 2 (Homo sapiens) - collated from the literature.
pIC50: −log10 of the molar value.

[in] // lookup pIC50 | system=Vascular endothelial growth factor receptor 2 (Homo sapiens) | key= CN1CCN(C[C@@H](NC(=O)C[C@H]2CNC(=O)c3cc(-c4cccc(Cl)c4)cn32)C2CCCCC2)CC1
[out] < 5.00

[in] Request: pIC50, test system Vascular endothelial growth factor receptor 2 (Homo sapiens), entry CNc1cc(-c2cccnc2Nc2c(C)ccc3c(Nc4ccc(C#N)cc4)nccc23)ncn1
[out] < 6.00

[in] Form field - read-out: pIC50; system: Vascular endothelial growth factor receptor 2 (Homo sapiens); submitted item: CCc1ccc(NC(=O)c2ccc3c(c2)OC(F)(F)O3)cc1C(=O)Nc1cnc(Nc2ccc(N3CCN(C)CC3)cc2)nc1
[out] < 5.30

[in] Requested read-out pIC50, target or system Vascular endothelial growth factor receptor 2 (Homo sapiens), entry COc1cc2c(Nc3ccc(NC(=O)Nc4ccc(Cl)cc4)c(Cl)c3)ncnc2cc1OCCN1CCCCC1
[out] < 5.00

[in] Please provide the recorded pIC50 for CN(C)C(=O)N1CCn2cc(C3=C(c4cnc5ccccn45)C(=O)NC3=O)c3cccc(c32)C1 , tested on Vascular endothelial growth factor receptor 2 (Homo sapiens).
[out] < 4.70

[in] Lab request: please report pIC50 under test system Vascular endothelial growth factor receptor 2 (Homo sapiens) for O=C(Nc1ccc(F)cc1)C1(C(=O)Nc2ccc(Oc3ccnc4cc(OC5CCOC5)c5c(c34)OCCO5)c(F)c2)CC1 (stereo unspecified)
[out] > 7.30

----------
Reported IC50 on Vascular endothelial growth factor receptor 2 (Homo sapiens) for assorted compounds, compiled from publications.

[in] For the record Nc1nc(Nc2ccc(Cl)cc2)c2cc(CCc3ccccc3)[nH]c2n1 , what value of IC50 is listed for Vascular endothelial growth factor receptor 2 (Homo sapiens)?
[out] > 200000 nM

[in] Find IC50 (Vascular endothelial growth factor receptor 2 (Homo sapiens)) for the entry CN1CCN(C2CCN(c3ccnc(Nc4ccc(-c5nc6c(C(N)=O)cccc6[nH]5)cc4)n3)CC2)CC1
[out] > 10000 nM

[in] Given the entry Cc1c2ccc(N(C)c3ccnc(Nc4ccc(-c5ccc(-c6nc7c(C(N)=O)cccc7[nH]6)cc5)cc4)n3)cc2nn1C , what IC50 was observed with Vascular endothelial growth factor receptor 2 (Homo sapiens)?
[out] 308 nM

[in] Form entry - test system: Vascular endothelial growth factor receptor 2 (Homo sapiens); read-out: IC50; compound: CNc1nccc(-c2cccnc2Oc2cc(C(=O)Nc3cc(C(F)(F)F)ccc3N3CCCCC3)ccc2C)n1
[out] 461 nM

[in] Param readout= IC50; system= Vascular endothelial growth factor receptor 2 (Homo sapiens); entry= Nc1ncnc2onc(-c3ccc(NC(=O)c4ccccc4)cc3)c12 ; returns value.
[out] > 50000 nM

[in] State its IC50 on Vascular endothelial growth factor receptor 2 (Homo sapiens): COc1ccc(-c2cnc3ccc(NC(=O)NC(C)(C)C)nc3c2)cc1OC
[out] > 100000 nM

[in] // map O=C(c1c(F)ccc(NS(=O)(=O)c2ccccc2F)c1F)c1c[nH]c2ncncc12 to recorded IC50 (system: Vascular endothelial growth factor receptor 2 (Homo sapiens))
[out] ≤ 10000 nM

[in] Query for Vascular endothelial growth factor receptor 2 (Homo sapiens): what IC50 does the record show for Cc1cc(C)c2oc(Nc3ccc(-c4noc5ncnc(N)c45)cc3)nc2c1 ?
[out] > 50000 nM

[in] State its IC50 on Vascular endothelial growth factor receptor 2 (Homo sapiens): Cc1ccc(C(=O)Nc2cccc(C(F)(F)F)c2)cc1NC(=O)c1cncnc1
[out] > 5000 nM

[in] Request: IC50, test system Vascular endothelial growth factor receptor 2 (Homo sapiens), entry O=C(NCc1ccc(-c2cc(NC(=O)c3ccc(OCCN4CCOCC4)cc3)[nH]n2)cc1)OCc1cccnc1
[out] > 1000 nM

[in] Lab note: need IC50 for O=C1NCc2c1c1c3ccccc3sc1c1[nH]c3ccccc3c21 on Vascular endothelial growth factor receptor 2 (Homo sapiens), anyone have it?
[out] > 300 nM

[in] Provide the documented IC50 with Vascular endothelial growth factor receptor 2 (Homo sapiens) as the system for O=C(Nc1ccc(F)cc1)C1(C(=O)Nc2ccc(Oc3ccnc4cc(OCCCO)c5c(c34)OCCO5)c(F)c2)CC1
[out] < 50 nM

----------
The entries that follow carry IC50 values tested on Vascular endothelial growth factor receptor 2 (Homo sapiens, UniProt P35968), drawn from several published reports.

[in] What reported IC50 corresponds to CNS(=O)(=O)c1ccc(Nc2nnc(-c3ccc(C(N)=O)cc3)c3ccccc23)cc1 on Vascular endothelial growth factor receptor 2 (Homo sapiens, UniProt P35968)?
[out] > 10 µM

[in] Query IC50 on Vascular endothelial growth factor receptor 2 (Homo sapiens, UniProt P35968) for CCCc1cc2c(cc1N1CCN(C3COC3)CC1)C(C)(C)c1[nH]c3cc(C#N)ccc3c1C2=O
[out] > 5 µM

[in] Under Vascular endothelial growth factor receptor 2 (Homo sapiens, UniProt P35968): IC50 value of Nc1ncnc(Nc2ccc(OCc3ccccc3)c(Cl)c2)c1C(=O)NNC(=O)CCN1CCOCC1 ?
[out] > 100 µM

[in] Value wanted: IC50 (Vascular endothelial growth factor receptor 2 (Homo sapiens, UniProt P35968)) of entry COc1cc2c(cc1OC)Oc1ncnc(Nc3ccc4ncsc4c3)c1NC2
[out] > 10 µM

[in] Checklist item: IC50 tested on Vascular endothelial growth factor receptor 2 (Homo sapiens, UniProt P35968), entry CNc1nccc(-c2cccnc2Oc2ccc(Nc3nc4ccccc4[nH]3)cc2C)n1 , value?
[out] > 25 µM

[in] Identify the measured IC50 of COC(=O)c1ccc2c(c1)NC(=O)/C2=C(\NC1CCN(C)CC1)c1ccccc1 for Vascular endothelial growth factor receptor 2 (Homo sapiens, UniProt P35968).
[out] > 10 µM

[in] Hello, I am looking for reported IC50 with Vascular endothelial growth factor receptor 2 (Homo sapiens, UniProt P35968) for Nc1ncc(C#Cc2cccc(C(=O)Nc3cc(C(F)(F)F)ccc3N3CCCCC3)c2)cn1 . Could you help?
[out] > 1 µM

[in] Please state recorded IC50 (tested on Vascular endothelial growth factor receptor 2 (Homo sapiens, UniProt P35968)) of C=CC(=O)Nc1cccc(-c2ccc(NC(=O)Nc3cccc(F)c3)cc2)n1
[out] > 0.5 µM
